Measured values drawn from paper PMC11007443 for this set.

# SUBJECT OF TEST: T1, biotinylated tau 2N4R (Homo sapiens, UniProt P10636-8, biotin (N-hydroxysuccimide-biotin conjugates, 5 M excess))
# T1 construct: tau protein, 2N4R isoform, NCBI NP_005901.2; Expressed from pET15b-tau; also called full-length tau; source: E. coli BL21 (DE3), purified (heating, cation exchange), then biotinylated
# EXPERIMENT SUMMARY: SPR; biotinylated tau 2N4R captured on a streptavidin chip (500 RU); VHHs as analytes, 0.125-2 uM, single-cycle kinetics; HBS-EP+ buffer; 1:1 Langmuir model; Kd calculated as koff/kon
# PARTICULARS: both partners purified
Property: pKd; scope: individual binders
pKd field: float, defined as -log10 of concentration (mol/L).

VHH Z70 mutant 14 (VHH, as the chain of m1 (VHH Z70); The text says only that G115E is combined with additional substitutions in mutant 14; also called Mut14; source: E. coli BL21 (DE3), periplasm, purified (IMAC, SEC)) VHH: EVQLQASGGVFVQSGGSLRLSCAASGATSIFDGMGWFRQAPGKEREFVSAISYGQGSYTYYADSVKGRFTISRDNSKNMVYLQMNSLRAEDTATYYCAPAYEGDLYAFDSYGEQGTQVTVSS | 7.13
VHH Z70 mutant 20 (R47K + G115E) (VHH, as the chain of m1 (VHH Z70); Generated by the authors, not found in the screen; also called Mut20; source: E. coli BL21 (DE3), periplasm, purified (IMAC, SEC)) VHH: EVQLQASGGVFVQSGGSLRLSCAASGATSTFDGMGWFRQAPGKEKEFVSAISYEQGSYTYYADSVKGRFTISRDNSKNMVYLQMNSLRAEDTATYYCAPAYEGDLYAFDSYGEQGTQVTVSS | 7.38
VHH Z70 mutant 15 (R90G + P101S + G114E) (VHH, as the chain of m1 (VHH Z70); also called Mut15; source: E. coli BL21 (DE3), periplasm, purified (IMAC, SEC)) VHH: EVQLQASGGVFVQSGGSLRLSCAASGATSTFDGMGWFRQAPGKEREFVSAISYEQGSYTYYADSVKGRFTISRDNSKNMVYLQMNSLGAEDTATYYCASAYEGDLYAFDSYEGQGTQVTVSS | 7.37

Challenge: Which value of pKd has been reported for VHH Z70 mutant 3 (R47K) (VHH, as the chain of m1 (VHH Z70); also called Mut3; source: E. coli BL21 (DE3), periplasm, purified (IMAC, SEC)) VHH: EVQLQASGGVFVQSGGSLRLSCAASGATSTFDGMGWFRQAPGKEKEFVSAISYEQGSYTYYADSVKGRFTISRDNSKNMVYLQMNSLRAEDTATYYCAPAYEGDLYAFDSYGGQGTQVTVSS in the records?
Response given: 7.09
